# System: 454973-116-R2-J3-PDC spheroids, viability, % test/control;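 further: spheroids exposed to compounds for seven days; 100% = DMSO vehicle control viability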
# Test protocol: Anticancer human tumor 454973-116-R2-J3-PDC patient-derived pancreatic carcinoma cell line growth inhibition [GQUAD]
# Measurement parameters: second compound 10 µM; first compound 0.316 µM; hits give low values; spheroids with HUVEC and MSC
Field: viability, T/C. Provide a value for each of the molecules that follow.

// fetch viability, T/C given entry CC(=O)O[C@H]1C(=O)[C@@]2(C)[C@H]([C@H](OC(=O)c3ccccc3)[C@]3(O)C[C@H](OC(=O)[C@H](O)[C@@H](NC(=O)c4ccccc4)c4ccccc4)C(C)=C1C3(C)C)[C@]1(OC(C)=O)CO[C@@H]1C[C@@H]2O + CN(C)c1ccc(Nc2c3ccc(NC(=O)CCN4CCCC4)cc3nc3cc(NC(=O)CCN4CCCC4)ccc23)cc1 8.85%

For the molecule Nc1ccn(C2OC(CO)C(O)C2(F)F)c(=O)n1 (configuration not stated) + Cc1cnc(CNC(=O)c2c(=O)c3ccc(N4CCCN(C)CC4)nc3n3c2sc2ccccc23)cn1 , give its reported viability, T/C. 26.2%

Specify viability, T/C for COc1ccc([C@@H](O)c2cc(-c3ncnc4cc(N5CCOCC5)ccc34)c(F)cc2Cl)nn1 + CN(C)c1ccc(Nc2c3ccc(NC(=O)CCN4CCCC4)cc3nc3cc(NC(=O)CCN4CCCC4)ccc23)cc1 and stop. 81.9%

Please give measured viability, T/C of the following entry: COc1ncnc(C2CC2)c1-c1ncc2cnn(Cc3ccc(-c4nc(C(F)(F)F)cn4C(C)C)cc3)c2n1 + CN(C)c1ccc(Nc2c3ccc(NC(=O)CCN4CCCC4)cc3nc3cc(NC(=O)CCN4CCCC4)ccc23)cc1 77.2%

Answer with the recorded viability, T/C of O=c1[nH]cc(F)c(=O)[nH]1 + Cc1cnc(CNC(=O)c2c(=O)c3ccc(N4CCCN(C)CC4)nc3n3c2sc2ccccc23)cn1 only. 52.7%

Look up and report measured viability, T/C for this entry: COc1cc(C2c3cc4c(cc3C(OC3OC5COC(C)OC5C(O)C3O)C3COC(=O)C23)OCO4)cc(OC)c1O (configuration not stated) + CN(C)c1ccc(Nc2c3ccc(NC(=O)CCN4CCCC4)cc3nc3cc(NC(=O)CCN4CCCC4)ccc23)cc1 66.2%

Kindly indicate its recorded viability, T/C. Item: O=c1[nH]cc(F)c(=O)[nH]1 + Cc1[nH]c2ccc(F)cc2c1-c1nc2c3cccnc3c3ncccc3c2[nH]1 102%

Return reported viability, T/C. Input molecule: CC(C)n1c(=O)n(C)c2cnc3cc(F)c(-c4ccc(OCCCN5CCCCC5)nc4)cc3c21 + Cc1[nH]c2ccc(F)cc2c1-c1nc2c3cccnc3c3ncccc3c2[nH]1 88.3%

Retrieve viability, T/C measured for CC1COCCN1c1cc(-c2ccnn2C)c2ccnc(-c3ccn[nH]3)c2n1 (configuration not stated) + CN(C)c1ccc(Nc2c3ccc(NC(=O)CCN4CCCC4)cc3nc3cc(NC(=O)CCN4CCCC4)ccc23)cc1 and print it. 31.4%

Quickly give me recorded viability, T/C for Nc1ccn(C2OC(CO)C(O)C2(F)F)c(=O)n1 (configuration not stated) + CN(C)c1ccc(Nc2c3ccc(NC(=O)CCN4CCCC4)cc3nc3cc(NC(=O)CCN4CCCC4)ccc23)cc1 16.9%

Item Cn1ncnc1[C@H]1c2n[nH]c(=O)c3cc(F)cc(c23)N[C@@H]1c1ccc(F)cc1 + Cc1[nH]c2ccc(F)cc2c1-c1nc2c3cccnc3c3ncccc3c2[nH]1 : provide viability, T/C 76.1%

Specify reported viability, T/C for the molecule shown: C=CC(=O)N1CCN(c2nc(=O)n(-c3c(C)ccnc3C(C)C)c3nc(-c4c(O)cccc4F)c(F)cc23)C(C)C1 (configuration not stated) + Cc1[nH]c2ccc(F)cc2c1-c1nc2c3cccnc3c3ncccc3c2[nH]1 104%

Answer with the recorded viability, T/C for the molecule listed here: Cc1[nH]c2ccccc2c1CCNCc1ccc(/C=C/C(=O)NO)cc1 + CN(C)c1ccc(Nc2c3ccc(NC(=O)CCN4CCCC4)cc3nc3cc(NC(=O)CCN4CCCC4)ccc23)cc1 4.66%

Consider the molecule O=C(c1cc(Cc2n[nH]c(=O)c3ccccc23)ccc1F)N1CCN(C(=O)C2CC2)CC1 + Cc1[nH]c2ccc(F)cc2c1-c1nc2c3cccnc3c3ncccc3c2[nH]1 . State its measured viability, T/C. 90.9%

Give viability, T/C for the following molecule: C#Cc1c(F)ccc2cc(O)cc(-c3ncc4c(N5CC6CCC(C5)N6)nc(OCC56CCCN5CC(F)C6)nc4c3F)c12 (configuration not stated) + Cc1[nH]c2ccc(F)cc2c1-c1nc2c3cccnc3c3ncccc3c2[nH]1 26.2%

For the molecule O=C(c1cc(Cc2n[nH]c(=O)c3ccccc23)ccc1F)N1CCN(C(=O)C2CC2)CC1 + CN(C)c1ccc(Nc2c3ccc(NC(=O)CCN4CCCC4)cc3nc3cc(NC(=O)CCN4CCCC4)ccc23)cc1 , give its measured viability, T/C value. 67.9%

Tell us which viability, T/C value is on record for Cc1[nH]c2ccccc2c1CCNCc1ccc(/C=C/C(=O)NO)cc1 + Cc1cnc(CNC(=O)c2c(=O)c3ccc(N4CCCN(C)CC4)nc3n3c2sc2ccccc23)cn1 0.47%

Give viability, T/C for the following molecule: COc1ncnc(C2CC2)c1-c1ncc2cnn(Cc3ccc(-c4nc(C(F)(F)F)cn4C(C)C)cc3)c2n1 + Cc1[nH]c2ccc(F)cc2c1-c1nc2c3cccnc3c3ncccc3c2[nH]1 96.7%

Supply recorded viability, T/C for CC(C)n1c(=O)n(C)c2cnc3cc(F)c(-c4ccc(OCCCN5CCCCC5)nc4)cc3c21 + CN(C)c1ccc(Nc2c3ccc(NC(=O)CCN4CCCC4)cc3nc3cc(NC(=O)CCN4CCCC4)ccc23)cc1 here. 69%

For the molecule C=CCn1c(=O)c2cnc(Nc3ccc(N4CCN(C)CC4)cc3)nc2n1-c1cccc(C(C)(C)O)n1 + Cc1[nH]c2ccc(F)cc2c1-c1nc2c3cccnc3c3ncccc3c2[nH]1 , give its measured viability, T/C value. 57.6%

Give the reported viability, T/C for this molecule. COc1cccc2c1C(=O)c1c(O)c3c(c(O)c1C2=O)CC(O)(C(=O)CO)CC3OC1CC(N)C(O)C(C)O1 (configuration not stated) + Cc1[nH]c2ccc(F)cc2c1-c1nc2c3cccnc3c3ncccc3c2[nH]1 27%

// fetch viability, T/C given entry CC1COCCN1c1cc(-c2ccnn2C)c2ccnc(-c3ccn[nH]3)c2n1 (configuration not stated) + Cc1cnc(CNC(=O)c2c(=O)c3ccc(N4CCCN(C)CC4)nc3n3c2sc2ccccc23)cn1 2.37%
